TARGET OF ASSAY: Prostaglandin G/H synthase 2 (Homo sapiens)
Sequence (P35354 whole entry): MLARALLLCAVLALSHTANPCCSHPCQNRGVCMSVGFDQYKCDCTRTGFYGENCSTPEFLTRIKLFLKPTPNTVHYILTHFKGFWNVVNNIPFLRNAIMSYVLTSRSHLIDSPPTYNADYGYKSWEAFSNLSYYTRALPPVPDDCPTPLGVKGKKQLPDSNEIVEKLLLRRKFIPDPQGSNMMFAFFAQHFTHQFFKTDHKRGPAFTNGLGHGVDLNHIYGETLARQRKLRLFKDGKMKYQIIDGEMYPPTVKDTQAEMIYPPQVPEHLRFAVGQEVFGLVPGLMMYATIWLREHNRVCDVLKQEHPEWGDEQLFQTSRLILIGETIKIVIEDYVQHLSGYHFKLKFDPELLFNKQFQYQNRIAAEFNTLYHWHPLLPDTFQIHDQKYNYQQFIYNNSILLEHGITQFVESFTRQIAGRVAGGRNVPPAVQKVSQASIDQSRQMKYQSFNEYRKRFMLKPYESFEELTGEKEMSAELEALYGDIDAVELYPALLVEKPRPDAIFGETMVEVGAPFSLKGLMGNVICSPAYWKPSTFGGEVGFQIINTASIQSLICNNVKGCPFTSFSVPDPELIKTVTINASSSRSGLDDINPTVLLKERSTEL
EXPERIMENT NOTES: Inhibition of COX-2-mediated 6-keto-PGF1alpha production in IL-1beta-induced HUVEC preincubated for 20 mins prior A23187 stimulation measured after 15 mins by RIA
Let's look at some molecules and their measured log10 IC50.
log10 IC50, nM

Answered cases to consult:
Form field: reported log10 IC50 of `CCc1ccc2[nH]c(C(=O)c3cc(C)ccn3)c(CC(=O)O)c2c1`
1.20

Also `Cc1ccnc(C(=O)c2[nH]c3ccc(C(C)(C)C)cc3c2CC(=O)O)c1` ?
1.62

Another molecule to look at: `CCc1ccnc(C(=O)c2[nH]c3ccc(OC(F)(F)F)cc3c2CC(=O)O)c1`
2.62

Query molecule follows.
Would you mind telling me what log10 IC50 value was observed for `O=C(O)Cc1c(C(=O)c2cc3c(cn2)CCCC3)[nH]c2cc(Cl)ccc12` ?
1.28

====

TARGET OF ASSAY: Prostaglandin G/H synthase 1 (Homo sapiens, UniProt P23219)
Sequence (P23219 whole entry): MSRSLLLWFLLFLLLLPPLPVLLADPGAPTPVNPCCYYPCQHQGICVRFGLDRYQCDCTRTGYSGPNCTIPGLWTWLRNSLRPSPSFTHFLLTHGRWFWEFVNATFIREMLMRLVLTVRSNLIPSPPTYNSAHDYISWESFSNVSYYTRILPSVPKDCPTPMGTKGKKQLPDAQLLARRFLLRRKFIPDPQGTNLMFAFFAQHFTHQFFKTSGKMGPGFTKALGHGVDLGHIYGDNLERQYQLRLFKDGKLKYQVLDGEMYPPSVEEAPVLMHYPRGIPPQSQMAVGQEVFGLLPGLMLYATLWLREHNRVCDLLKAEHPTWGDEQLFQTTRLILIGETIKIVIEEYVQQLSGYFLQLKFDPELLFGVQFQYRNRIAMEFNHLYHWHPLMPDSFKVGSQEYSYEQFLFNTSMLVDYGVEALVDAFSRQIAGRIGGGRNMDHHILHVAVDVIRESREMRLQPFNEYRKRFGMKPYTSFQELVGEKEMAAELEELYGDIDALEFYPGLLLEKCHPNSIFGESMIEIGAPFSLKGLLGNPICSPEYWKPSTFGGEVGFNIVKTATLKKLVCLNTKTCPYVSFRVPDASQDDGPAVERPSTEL
EXPERIMENT NOTES: Inhibition of COX-1-mediated TXB2 production in human platelets preincubated for 20 mins prior A23187 stimulation measured after 15 mins by RIA
REPORTED METRIC: IC50 (nM)
Entry rule: numbers only, all in nM.

Examples with their reported IC50 follow.
# value lookup — system Prostaglandin G/H synthase 1 (Homo sapiens, UniProt P23219), readout IC50, item `Cc1ccnc(C(=O)c2[nH]c3ccc(OC(F)(F)F)cc3c2CC(=O)O)c1`
1000

Item: `Cc1ccnc(C(=O)c2[nH]c3ccc(C(C)(C)C)cc3c2CC(=O)O)c1`
1510

How about `COc1ccc2[nH]c(C(=O)c3cc(C)ccn3)c(CC(=O)O)c2c1` ?
3050

Also `Cc1ccnc(C(=O)c2[nH]c3cc(Cl)c(F)cc3c2CC(=O)O)c1` ?
65.9

Likewise for `CCc1ccc2[nH]c(C(=O)c3cc(C)ccn3)c(CC(=O)O)c2c1` ?
882

Consider the record given below.
Test system Prostaglandin G/H synthase 1 (Homo sapiens, UniProt P23219); read-out IC50; what value for `Cc1ccnc(C(=O)c2[nH]c3cc(F)ccc3c2CC(=O)O)c1` ?
849

Recorded values, source ChEMBL document CHEMBL1949501.
